Each entry below carries its recorded TGI.
Test system: RXF-631 renal
Measurement notes: NCI tumour cell line growth inhibition, 48 h

- Compound: "O=C(c1nc2ccc(Cl)cc2[nH]c1=O)C(O)c1ccco1 (configuration not stated)"
  TGI: "> 100 µM"
- Compound: "COc1cc2ccnc(-c3n[nH]c4cc(OC)c(OC)cc34)c2cc1OC"
  TGI: "93.4 µM"
- Compound: "CN(C)C(=S)/N=C(\\N)N(C)C"
  TGI: "> 100 µM"
- Compound: "CC(C(=O)c1ccc(O)cc1)C1(O)C(=O)Nc2c(Cl)cc(Cl)cc21 (configuration not stated)"
  TGI: "> 100 µM"
- Compound: "COc1ccccc1NC(=O)C1=C(C)NC(C)=C(C(=O)Nc2ccccc2OC)C1c1ccc(C2C(C(=O)Nc3ccccc3OC)=C(C)NC(C)=C2C(=O)Nc2ccccc2OC)cc1"
  TGI: "13.7 µM"
- Compound: "CC(=O)NC(CCCCN(Cc1ccccc1)C(=O)N(C)N=O)C(=O)NCc1ccccc1 (configuration not stated)"
  TGI: "> 100 µM"
- Compound: "N#CCc1ccccc1/C(C#N)=C1/OC(=N)C(c2ccccc2CC#N)C1=O (configuration not stated)"
  TGI: "> 100 µM"

* * *

Quick list: TGI per entry.
Test system: UO-31 renal
Measurement notes: NCI tumour cell line growth inhibition, 48 h

- Molecule: "COc1ccc2c(ccc3oc([N+](=O)[O-])cc32)c1"
  Bound type: "="
  TGI (µM): 0.763
- Molecule: "O=C(NN1CCCCC1)c1cc2cc(CCl)ccc2oc1=O"
  Bound type: "="
  TGI (µM): 35.3
- Molecule: "Clc1ccc(C2=Cc3nc2c(-c2ccccc2)c2ccc([nH]2)c(-c2ccccc2)c2nc(c(-c4ccccc4)c4ccc([nH]4)c3-c3ccccc3)C=C2)cc1"
  Bound type: ">"
  TGI (µM): 62.5
- Molecule: "O=C1NC(=O)C23C(=O)NC(=O)C12C1C=CC3CC1 (stereo unspecified)"
  Bound type: ">"
  TGI (µM): 10
- Molecule: "CN(C)c1ccc(C2=C([O-])c3cc(-[n+]4ccccc4)ccc3C2=O)cc1"
  Bound type: ">"
  TGI (µM): 100
- Molecule: "O=C1CCCc2cc3c(cc21)CC1(C3)Cc2cc3c(cc2C1)C(=O)CCC3"
  Bound type: "="
  TGI (µM): 81.4
- Molecule: "CNc1cc(Cl)ccc1C(=O)N1CCC[C@H]1CO"
  Bound type: ">"
  TGI (µM): 100
- Molecule: "CNC(=O)OCC1=C(COC(=O)NC)CN(c2ccc(OC)cc2)C1"
  Bound type: ">"
  TGI (µM): 100
- Molecule: "COc1cc2ccnc(-c3n[nH]c4cc(OC)c(OC)cc34)c2cc1OC"
  Bound type: ">"
  TGI (µM): 100
- Molecule: "CNc1ccc(Cl)cc1C(=O)N1CCC[C@H]1CO"
  Bound type: ">"
  TGI (µM): 100
- Molecule: "CC12OC(C(=O)C13CCC3)C1C(=O)c3c(O)ccc(O)c3C(=O)C12 (stereo unspecified)"
  Bound type: "="
  TGI (µM): 9.06
- Molecule: "O=C(Cc1ccccc1)Nc1nc2ccc(Cl)cc2c2nc(-c3ccco3)nn12"
  Bound type: ">"
  TGI (µM): 100
- Molecule: "Fc1cccc(-c2nc(-c3c[nH]c4ncccc34)cs2)c1"
  Bound type: ">"
  TGI (µM): 100
- Molecule: "CN(CCCNC(=O)c1nn(-c2ccccc2)c2c1Cc1ccccc1-2)CCCNC(=O)c1nn(-c2ccccc2)c2c1Cc1ccccc1-2"
  Bound type: "="
  TGI (µM): 3.29
- Molecule: "Cc1cc(=O)[nH]c(S(=O)(=O)NC(=O)Nc2cccc(Cl)c2)n1"
  Bound type: "="
  TGI (µM): 13.9
- Molecule: "[N-]=[N+]=Nc1nnc(CCCCc2nnc(N=[N+]=[N-])o2)o1"
  Bound type: ">"
  TGI (µM): 100
- Molecule: "N#Cc1cc2c(=S)[nH]c(=S)[nH]c2nc1SCc1ccccc1"
  Bound type: ">"
  TGI (µM): 100
- Molecule: "CCN(CC)CCOc1ccccc1-n1c(C)ccc1-c1ccccc1"
  Bound type: "="
  TGI (µM): 24.4
- Molecule: "CC(C)C1COC(C(C)(C)C2=N[C@@H](C(C)C)CO2)=N1 (stereo partly specified)"
  Bound type: ">"
  TGI (µM): 100
- Molecule: "CN(C)c1ccc(/C=C2\\C[C@H]3[C@@H]4CC=C5C[C@@H](O)CC[C@]5(C)[C@H]4CC[C@]3(C)[C@H]2O)cc1"
  Bound type: "="
  TGI (µM): 36.9
- Molecule: "CCN1Cc2c(/C=C/c3ccccc3)nc3ccc(OC)cc3c2N(c2cccc(Cl)c2)C1"
  Bound type: "="
  TGI (µM): 2.95
- Molecule: "COc1ccc(-c2n[nH]c3nc4ccccc4n3c2=O)cc1"
  Bound type: ">"
  TGI (µM): 100
- Molecule: "COC(=O)[C@]12CC[C@@H](C)[C@H](C)[C@@H]1C1=CC[C@@H]3[C@@]4(C)C(C=O)=C[C@@](C)(COC(=O)c5ccco5)C4=CC[C@@]3(C)[C@]1(C)CC2"
  Bound type: "="
  TGI (µM): 5.03
- Molecule: "CCCCCCCCCCCCCCCCCCOC(COP(=O)(O)OCC1OC(n2cc(F)c(=O)[nH]c2=O)CC1O)COP(=O)(O)OCC1OC(n2ccc(N)nc2=O)C(O)C1O (stereo unspecified)"
  Bound type: ">"
  TGI (µM): 100
- Molecule: "NC(CCSCCF)C(=O)O (stereo unspecified)"
  Bound type: ">"
  TGI (µM): 100
- Molecule: "COc1ccc(-c2cncn2-c2ccc(-c3nc4cc(OC)c(OC)c(OC)c4s3)cc2)cc1N"
  Bound type: "="
  TGI (µM): 7.57
